From: patent US10051861B2

tested on: greenhouse red spider mite (Tetranychus urticae); test: Tetranychus urticae spray test, OP-resistant (TETRUR), bean leaf disks; assay type: in vivo; conditions: Tetranychus urticae, foliar, 144 h, application rate 500 g/ha, after 6 days; read-out: efficacy (spider mites killed)
This section presents molecules with their documented pest or weed control at 500 g/ha values.
Your answer is read as %, so omit the unit and give the number.

Solved cases below.
>  <MOLECULE>
CN/C(=N\c1cc(SCC(F)(F)F)c(C)cc1F)c1cccnc1 [Ia-61]

>  <TGT>
greenhouse red spider mite (Tetranychus urticae)

>  <RECORDED_NUMBER>
100

$$$$
>  <MOLECULE>
CCN/C(=N\c1cc(SCC(F)(F)F)c(Cl)cc1Cl)c1cccnc1 [Ia-220]

>  <TGT>
greenhouse red spider mite (Tetranychus urticae)

>  <RECORDED_NUMBER>
90

$$$$
>  <MOLECULE>
Cc1cc(F)c(/N=C2/CCCN2CC(F)F)cc1SCC(F)(F)F [Ia-55]

>  <TGT>
greenhouse red spider mite (Tetranychus urticae)

>  <RECORDED_NUMBER>
100

$$$$
>  <MOLECULE>
CN/C(=N/c1cc([S+]([O-])CC(F)(F)F)c(Cl)cc1F)C(F)(F)F (stereo not shown) [Ib-41]

>  <TGT>
greenhouse red spider mite (Tetranychus urticae)

>  <RECORDED_NUMBER>
90

$$$$
>  <MOLECULE>
N/C(=N\c1cccc(SCC(F)(F)F)c1)c1cccnc1 [Ia-104]

>  <TGT>
greenhouse red spider mite (Tetranychus urticae)

>  <RECORDED_NUMBER>
90

$$$$
>  <MOLECULE>
Cc1cc(F)c(/N=C(\NCC(F)(F)F)C2CC2)cc1SCC(F)(F)F [Ia-145]

>  <TGT>
greenhouse red spider mite (Tetranychus urticae)

>  <RECORDED_NUMBER>
100

$$$$

Please turn your attention to the following entry.
molecule Cc1cc(F)c(/N=C(\N)C2CC2)cc1SCC(F)(F)F [Ia-92] , pest or weed control at 500 g/ha observed: 90
